The reported measurements were obtained from patent US12552797B2.

METHOD_NOTES: Solubility of Compound 1 in solution formulation vehicles (visual)
Assay type: physicochemical
CONDITION_NOTES: Prototype 5 solution formulation vehicle, organic solvent or mixture, thermodynamic from solid; Prototype 5: 40 Capryol 90+20% Labrasol+40% Transcutol HP; read-out: maximum solubility (visually determined)
QUANTITY_NAME: solubility

Ask | Given CCOC(F)(F)c1nnc2cnc(-c3cnc(OCC(F)(F)F)c(F)c3)cn12 , state its recorded solubility.
Reply | 60 to 80 mg/mL

====

METHOD_NOTES: Solubility of Compound 1 in solution formulation vehicles (visual)
Assay type: physicochemical
CONDITION_NOTES: Prototype 4 solution formulation vehicle, organic solvent or mixture, thermodynamic from solid; Prototype 4: 36% Cremophor RH40+45% Capmul MCM C8+9% Triethylcitrate+10% Ethanol; read-out: maximum solubility (visually determined)
QUANTITY_NAME: solubility

Ask | Given CCOC(F)(F)c1nnc2cnc(-c3cnc(OCC(F)(F)F)c(F)c3)cn12 , state its recorded solubility.
Reply | 25 to 50 mg/mL

====

METHOD_NOTES: Kinetic solubility of amorphous solid dispersions (ASD) in FaSSIF
Format: physicochemical
CONDITION_NOTES: FaSSIF, thermodynamic from solid; 2 mg/mL, 37° C., 450 rpm; 120 min
QUANTITY_NAME: solubility kinetic at 120 min
Param answer (str): number followed by unit.

Ask | Given CCOC(F)(F)c1nnc2cnc(-c3cnc(OCC(F)(F)F)c(F)c3)cn12 , state its recorded solubility kinetic at 120 min.
Reply | 11.6 µg/mL

====

METHOD_NOTES: Phase 1 single/multiple ascending dose and food effect trial in healthy volunteers: pharmacokinetics (plasma, urine)
Type: in vivo, human
CONDITION_NOTES: human, plasma, oral; average across groups; healthy volunteers; preliminary data; read-out: Terminal elimination half-life (converted)
QUANTITY_NAME: half-life
Param answer (str): number followed by unit.

Ask | Given CCOC(F)(F)c1nnc2cnc(-c3cnc(OCC(F)(F)F)c(F)c3)cn12 , state its recorded half-life.
Reply | 114 h

====

METHOD_NOTES: Kinetic solubility of amorphous solid dispersions (ASD) in FaSSIF
Format: physicochemical
CONDITION_NOTES: FaSSIF, thermodynamic from solid; 2 mg/mL, 37° C., 450 rpm; 15 min
QUANTITY_NAME: solubility kinetic at 15 min (µg/mL)
Quick note: give the figure in µg/mL, leave out the unit.

Ask | Given CCOC(F)(F)c1nnc2cnc(-c3cnc(OCC(F)(F)F)c(F)c3)cn12 , state its recorded solubility kinetic at 15 min.
Reply | 5.7
